- TESTED ON: rat mGlu2 (Rattus norvegicus)
- Construct: expressed in transfected cells
- Sequence (P31421 19-872): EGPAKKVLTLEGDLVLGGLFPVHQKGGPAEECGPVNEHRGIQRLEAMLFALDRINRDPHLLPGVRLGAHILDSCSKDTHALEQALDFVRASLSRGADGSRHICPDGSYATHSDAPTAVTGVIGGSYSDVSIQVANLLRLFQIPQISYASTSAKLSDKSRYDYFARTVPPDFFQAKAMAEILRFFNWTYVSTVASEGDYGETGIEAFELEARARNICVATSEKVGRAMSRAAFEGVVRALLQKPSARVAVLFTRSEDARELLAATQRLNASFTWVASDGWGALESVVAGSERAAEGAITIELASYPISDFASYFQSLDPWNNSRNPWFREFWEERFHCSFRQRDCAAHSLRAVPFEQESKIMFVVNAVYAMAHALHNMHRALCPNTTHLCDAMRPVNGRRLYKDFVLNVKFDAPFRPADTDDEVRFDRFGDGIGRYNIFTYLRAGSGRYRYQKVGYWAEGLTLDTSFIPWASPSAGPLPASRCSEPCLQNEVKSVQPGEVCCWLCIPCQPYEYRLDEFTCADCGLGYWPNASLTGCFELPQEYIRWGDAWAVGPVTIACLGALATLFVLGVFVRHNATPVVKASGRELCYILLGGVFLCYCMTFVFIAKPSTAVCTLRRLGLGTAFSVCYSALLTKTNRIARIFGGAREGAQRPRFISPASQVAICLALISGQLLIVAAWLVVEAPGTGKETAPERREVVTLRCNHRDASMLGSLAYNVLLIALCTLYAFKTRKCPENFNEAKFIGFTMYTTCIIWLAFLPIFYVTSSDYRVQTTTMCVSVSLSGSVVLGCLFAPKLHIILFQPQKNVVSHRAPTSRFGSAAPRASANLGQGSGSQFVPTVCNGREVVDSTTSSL
- ASSAY EXPLANATION: mGlu2 Ca2+ flux assay
- Format: cell-based
- STUDY CONDITIONS: Gα15 HEK293 cells stably expressing rat mGlu2; glutamate EC80 addition; read-out: rat mGlu2 IC50
- Method: Gα15 HEK293 cells stably expressing rat mGlu2 were plated in black-walled, clear-bottomed, poly-D-lysine coated 384-well plates in 20 μL of assay medium (DMEM containing 10% dialyzed FBS, 20 mM HEPES, and 1 mM sodium pyruvate) at a density of 12K cells/well. […] Ca^2+ flux was measured using the Functional Drug Screening System (FDSS7000, Hamamatsu, Japan). […] Calcium fluorescence measures were recorded as fold over basal fluorescence; raw data was then normalized to the maximal response to glutamate. […]
pIC50: −log10 of the molar value.
PROPERTY: pIC50

Consider the following illustrative entries.
CN(Cc1ccncc1)c1ccc2c(c1)c(=O)c(C(N)=O)cn2-c1ccc(F)cc1    6.65
NC(=O)c1cn(-c2ccc(F)cc2)c2ccc(COc3ccncc3F)cc2c1=O    6.61
NC(=O)c1cn(-c2ccc(F)cc2)c2ccc(CN3CCCCCC3)cc2c1=O    5.59
NC(=O)c1cn(-c2ccc(F)cc2)c2ccc(CN3CCSCC3)cc2c1=O    6.36

a = NC(=O)c1cn(-c2ccc(F)cc2)c2ccc(CN3CC4(C3)CC(F)(F)C4)cc2c1=O
b = NC(=O)c1cn(-c2ccc(F)cc2)c2ccc(CCc3ccnc(C(F)(F)F)c3)cc2c1=O
c = NC(=O)c1cn(-c2ccc(F)cc2)c2ccc(Nc3cccnc3)cc2c1=O
d = Cc1ncc(COc2ccc3c(c2)c(=O)c(C(N)=O)cn3-c2ccc(F)cc2)cn1
Rank descending by pIC50. Response format: the labels, sorted as the prompt asks.
b, c, d, a
(b: 6.57, c: 6.36, d: 6.07, a: 5.69)

Attribution: patent US9382208B1
